B1: Homeobox protein cut-like 2, residues 895 to 963; numbered along this chain, O14529 (parent)
chain: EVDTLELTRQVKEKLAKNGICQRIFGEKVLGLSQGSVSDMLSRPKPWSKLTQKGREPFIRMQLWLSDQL

Variants of: B1
assay.procedure: abundance fitness (aPCA) (normalised: wild type 0, dead -1); higher = more abundant; growth selection in yeast, the domain comes from the species named
condition.label: Homo sapiens
Can you tell me abundance fitness for the items I'm about to list?
Answers are plain numbers.

Example entries and their recorded answers appear below.
In [3]: df
Out[3]:
                        biopolymer_sequence    recorded_metric  reported
0  EVDTLELTRQVKEKLAKNGICQRIFGEKTLGLSQGSVSDMLSRPKPWSKLTQKGREPFIRMQLWLSDQL  abundance fitness    -0.258
1  EVDTLELTRQVKEKLAKNGICQRIFQEKVLGLSQGSVSDMLSRPKPWSKLTQKGREPFIRMQLWLSDQL  abundance fitness    -0.584

Could you now look at the following variant, please?
Noted for "EVDTLELTWQVKEKLAKNGICQRIFGEKVLGLSQGSVSDMLSRPKPWSKLTQKGREPFIRMQLWLSDQL" : its abundance fitness reads -0.385

Data origin, for the record: the Human Domainome abundance scans (Beltran et al. 2025)
